Data origin, for the record: the domain aggregation screens of Martell et al. (2025)

Test summary: soluble fraction after stress (log2 fold change); higher = more stays soluble; pooled small domains, quantitative proteomics
Conditions: stress: 50 degC
Reported endpoint: soluble fraction (log2)
I'd appreciate a reply containing only the number, no unit.

Solved entries:
Sequence chain: HMTGDIIKQERKKKNLTQIELAKKVGISRNALINYEAGTRIPPISVQLKLADVLGIDILDLK
soluble fraction (log2): -0.299
//
Sequence chain: HMLAQYPGQVFSKEQIYNQVWKEPYYGVEDNVMSLIRRIRKKIEPDPSRPIYILTVWGIGYKFNN
soluble fraction (log2): -0.197
//
Sequence chain: HMEPEDVIAMERYLASGAIKGIGVTLAGRIIKKFQKETFHIIEEEPERLSEVKGISEKLAREIYQQFTQK
soluble fraction (log2): -0.873
//
Sequence chain: HMDDGALQIRLGPQALQQRLDKLGYSLNKEDLDLVYQYFLHSADSKGAVYDQELRELMGEAGVE
soluble fraction (log2): -0.0408
//
Sequence chain: HMEREQNIAQGREVVQRELKRLGLTDVFTVEDIGRALKFDDIDEFLSKVGFGDIQTAKITGAIALMQQALR
soluble fraction (log2): 0.0611
//
Sequence chain: HMRATLTDETARVVQEPTSESISLTSLRKGEEFEIGKVIRKKKEVWVTVTTSSGVKGYISGDTHIF
soluble fraction (log2): -0.0573

In the following, a different sequence is considered.
# soluble fraction (log2) (sequence: HMVSSVAAISQMIDEKDRYTSEHSHRVAEYARLIGAHMGFAGEELDSLYRSALLHDIGKIAVPDAILNK ) is -0.338

---

Test summary: soluble fraction after stress (log2 fold change); higher = more stays soluble; pooled small domains, quantitative proteomics
Conditions: stress: 50 degC
Where soluble fraction (log2) equals or exceeds -0.2, the correct label is True; where it does not, the label is False.

Use these answered entries as a reference point.
Sequence chain: HMKSISMANGNVQLRINGVLASSLEVAALSPEDIKRVEYHDNPGLRYGEGIDIVLDYITIKRT
Label: False
//
Sequence chain: HMKSIPKIKWNSTLENIKNFEYQDNFFESKEMYDLLVSFYKYGFVIIKNIPTNNNFIVKFANSIGS
Label: True

// inclusive: soluble fraction (log2) at least -0.2? input: HMAQVSDTGAIAKIVADAIAANPKQVQQYLDGNEKVLMYLVGQVMKLSKGKANPPMVIQLLKEQLG True

Determine whether this sequence has soluble fraction (log2) no lower than -0.2: HMYVTGSAIRRLREKRKLTQAQLAAALSVSDKTVSKWETARGLPDITLLEPLARALQVSVPELLSGEEV False

---

Test summary: soluble fraction after stress (log2 fold change); higher = more stays soluble; pooled small domains, quantitative proteomics
Conditions: stress: 50 degC
Listed next: entries and their corresponding soluble fraction (log2).
Lab note: jot the number down without any unit.

soluble fraction (log2) recorded for this sequence, HMAAFGDLLSELRRDMNMTQDELAKVLFVSPGTISNYENNIHFPDVPKLKQIAQYFGVTTDYLLG , is -0.405

Entry HMENQMIIYIDENDENKRLDSYLSEITPDYSRSKIQNFIKNGNVTVNDSNKKPSYLLKENDKISFELPQQ , soluble fraction (log2) reported as 0.00635

Please fill in: soluble fraction (log2) reported for HMNIEEQVVAEVLVKDFMKQLTPRDIHILELRKNGYTYQEIAGQLGYHTHSAVKKRVDRLAEQWLAYTQGH = -1.53

// soluble fraction (log2) lookup, sequence = HMTTQIPEEVQKRVNQFYEALDEEDYGEAKQILEELEKATAPDHPTLIQMRTRYEFDTMELR , result: 0.186

The recorded soluble fraction (log2) for entry HMKKPANLISEDRMVEVLYDVIIINTAKGVNKQLLQNNINNPLNYIYRSHGIDSLQFAESNAYYTS equals -0.371
